Cited source: PubChem BioAssay (NCI)

Tested on: NCI-H460 lung
EXPERIMENT NOTES: NCI-60 one-dose screen, 48 h
TEST CONDITIONS: 10 µM unless noted
This is part of a sample that, as a whole, favours compounds with a hit. Of some 83,000 tested, about 20% had one in any assay. Activity calls are given as the source filed them. The calls were made as follows: active = growth percent below 10; inactive = the rest.
Possible outcomes: t = active, f = inactive

O=C1/C(=C/c2ccc(F)cc2)CN(C(=O)CCN2CCC(=NO)CC2)C/C1=C\c1ccc(F)cc1; t
O=C(COc1cccc(/C=C2/Oc3ccccc3C2=O)c1)Nc1nccs1; f
COc1ccc(S(=O)(=O)NCCCNc2cc(-c3c(-c4cccc(OC)c4)nc4sccn34)ccn2)cc1; f
CC#CC#Cc1cccc(=O)o1; f
Cc1ccc(/C=C2\Oc3cc(OCC(=O)c4ccc(Cl)cc4)ccc3C2=O)cc1; f
COc1ccc(/C=N\NC(=O)CN2CCN(c3cc4c(cc3F)c(=O)c(C(=O)N/N=C/c3ccc(OC)cc3)cn4C3CC3)CC2)cc1; f
CC/C=C\C[C@H](F)C/C=C1/C(=O)C=C[C@@H]1C/C=C\CCCC(=O)O; f
COc1ccc(/C=C2\CN(C(=O)CCN3CCC(=NO)CC3)C/C(=C\c3ccc(OC)cc3)C2=O)cc1; t
CCCCCCCCCCNC(=O)CCl; f
CCNS(=O)(=O)c1ncnc2nc[nH]c12; f
COc1c(Cl)cc(Cl)cc1Cl; f
CCN(CC)CCC(=O)c1ccc(OC)c2ccccc12; f
C[C@@]1(N2C(=O)OC[C@@H]2c2ccccc2)C(=O)N([C@H](CC(=O)N2CCC(N3CCCCC3)CC2)C(=O)NCc2cccc(C(F)(F)F)c2)[C@@H]1/C=C/c1ccccc1; t
O=C(/C=C/c1ccc(Cl)cc1)/C=C/c1cc2ccccc2[nH]c1=O; f
CCN(CC)C12CCCCC1(C)C(C#N)(C#N)C(C#N)=C(N)O2 (stereo not given); f
Cc1noc(C)c1-c1cc(O)cc(C(O)c2ccccc2)c1 (stereo not given); f
COCCOC(=O)C1=C(C)NC(=S)NC1c1ccc2c(c1)OCO2 (stereo not given); f
Cc1cc(=O)oc2cc(Oc3nc(-c4cccs4)cn4c(-c5cccs5)cnc34)ccc12; f
COC(=O)C12C3C(=O)N(c4ccc(OC)cc4)C(=O)C3C(c3cn(-c4ccccc4)nc3C)N1[C@H](c1cn(-c3ccccc3)nc1C)[C@@H]1C(=O)N(c3ccc(OC)cc3)C(=O)[C@@H]12 (stereo not given in full); f
Cc1ccccc1CCO; f

====

System: OVCAR-3 ovarian
EXPERIMENT NOTES: NCI-60 one-dose screen, 48 h
TEST CONDITIONS: 10 µM unless noted
Protocol: Growth inhibition of the OVCAR-3 human tumor cell line is measured as a screen for anti-cancer activity. Cells are grown in 96 well plates and exposed to the test compound for 48 hours. Compounds are tested at a single concentration, which is 10^-5 M for most compounds. The reported endpoint is percent growth (GI% or GIPRCNT), where numbers from 0 - 100% represent growth inhibition, and numbers from -100% - 0 represent cell death. For example, a value of 40 represents 60% growth inhibition. […]
Compounds without any hit were thinned out: in the full panel of roughly 83,000, 20% have a hit. The source made the active and inactive calls. How the source made its calls: active means growth percent below 10; inactive means the rest.
Outcomes: Yes for active, No for inactive

COc1cc(OC)c(/C=C/S(=O)(=O)Cc2cnc(OC)c(N)c2)c(OC)c1; Yes
CC(=O)Oc1cc2cnc3c4cc(OC(C)=O)c(OC(C)=O)cc4ccc3c2cc1OC(C)=O; Yes
CCOC(=O)c1nc(Nc2cc(C)[nH]n2)c2ccccc2n1; No
Cc1ccc2c(c1)O/C(=C\c1cccc(OCC(=O)c3ccccc3)c1)C2=O; No
O=C(/C=C\c1cccc([N+](=O)[O-])c1)c1ccccc1; Yes
